Source listed as patent US10196363B2.

Assign EC50 to each entry below.
# systemUnderTest: mouse RORγ (Mus musculus, UniProt P51450)
# Construct: mouse RORγ, from Ile251 to Lys516; expressed in transfected cells; host or cells: CHO cells (Chinese hamster ovary), transient co-transfection with pG5-Luc
# Sequence (P51450 251-516): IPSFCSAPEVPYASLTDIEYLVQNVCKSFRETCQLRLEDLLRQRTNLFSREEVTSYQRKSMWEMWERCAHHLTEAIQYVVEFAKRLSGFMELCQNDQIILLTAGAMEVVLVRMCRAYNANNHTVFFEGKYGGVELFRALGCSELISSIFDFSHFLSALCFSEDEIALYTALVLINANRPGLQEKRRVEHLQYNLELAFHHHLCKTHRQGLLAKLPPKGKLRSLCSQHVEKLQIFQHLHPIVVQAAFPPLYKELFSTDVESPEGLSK
# experimentDescription: In vitro assay of inhibitory effect against RORγ transcriptional activity (GAL4-mRORγ LBD luciferase reporter gene assay in CHO cells)
# Format: cell-based
# testSettings: GAL4-mRORγ LBD luciferase reporter, CHO cells; read-out: LUC EC50 mRORγ
Please append the unit to your numeric answer.

Could you tell me EC50 for each of these molecules? They are listed below.
1. CC(C)(C)CCc1ccc([C@]2(C)NC(=O)N(CC3CC(F)(F)C3)C=C2[C@H]2C[C@@H](C(=O)O)C2)cc1Cl
2. C[C@@]1(c2ccc(CC3CCCCC3)c(Cl)c2)NC(=O)N(CCC(=O)O)C=C1C1CC1
3. CC(C)(C)C1=CN(CCC(=O)O)C(=O)N[C@@]1(C)c1ccc(CC2CCCCC2)c(Cl)c1
4. CC(C)(C)COc1ccc([C@]2(C)NC(=O)N(C34CC(C(=O)O)(C3)C4)C=C2C2CC(F)(F)C2)cc1Cl
5. CC(C)C1=CN(CCC(=O)O)C(=O)N[C@@]1(C)c1ccc(CCC(C)(C)O)c(Cl)c1
6. CC(C)C1=CN(CCC(=O)O)C(=O)N[C@@]1(C)c1ccc(CCC(C)(C)CO)c(Cl)c1
7. C[C@@]1(c2ccc(OCCC3CC3)c(Cl)c2)NC(=O)N(c2ccc(C(=O)O)cc2)C=C1C1CC(F)(F)C1

1: 21 nM; 2: 35 nM; 3: 15 nM; 4: 52 nM; 5: 1020 nM; 6: 492 nM; 7: 52 nM
